Data provenance: patent US20260116991A1

Biological target: T1, human GPC3 on CHO-K1-human GPC3 cells (clone CHOK1-hGPC3.2B5) (human, UniProt P51654 25-554)
T1 construct: whole, on cells; Stably transfected CHO-K1 clone 2B5
Test: FACS on CHOK1-hGPC3.2B5 cells;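 also: flow cytometry binding of chimeric antibodies to the cells, read out as mean fluorescence intensity, with the half-maximal concentration derived by curve fitting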
Measured Quantity: pEC50
Bear in mind: pEC50 is minus log10 of a mol/L concentration; give just that figure.

# pEC50 of F2.169.2 human-murine chimeric antibody (antibody, human IgG1, kappa, V domains shown) VH: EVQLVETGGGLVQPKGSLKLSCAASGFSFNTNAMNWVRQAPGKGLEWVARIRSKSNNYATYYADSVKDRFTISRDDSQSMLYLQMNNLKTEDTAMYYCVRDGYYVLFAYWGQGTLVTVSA VL: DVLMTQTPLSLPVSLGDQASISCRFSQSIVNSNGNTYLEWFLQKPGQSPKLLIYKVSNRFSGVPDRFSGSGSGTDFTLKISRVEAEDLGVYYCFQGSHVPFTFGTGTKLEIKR = 8.97

Looking up F1.118.4 human-murine chimeric antibody (antibody, human IgG1, kappa, V domains shown) VH: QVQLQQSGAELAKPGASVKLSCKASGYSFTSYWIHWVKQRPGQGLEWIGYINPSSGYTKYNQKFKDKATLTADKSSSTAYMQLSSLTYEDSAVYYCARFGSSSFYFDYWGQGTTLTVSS VL: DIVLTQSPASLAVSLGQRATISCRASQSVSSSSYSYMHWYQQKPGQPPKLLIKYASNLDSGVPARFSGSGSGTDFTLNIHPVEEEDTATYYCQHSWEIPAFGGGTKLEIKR , I found its pEC50 recorded as 9.28

Entry under test: F1.110.24 human-murine chimeric antibody (antibody, human IgG1, kappa, V domains shown) VH: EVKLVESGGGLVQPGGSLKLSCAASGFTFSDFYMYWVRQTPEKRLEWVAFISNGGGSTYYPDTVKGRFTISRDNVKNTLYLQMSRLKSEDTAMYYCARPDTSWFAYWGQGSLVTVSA VL: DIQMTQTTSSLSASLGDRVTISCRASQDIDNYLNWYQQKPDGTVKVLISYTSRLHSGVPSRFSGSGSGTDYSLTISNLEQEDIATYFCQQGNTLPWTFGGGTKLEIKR . Its pEC50 was 9.05

Measured pEC50 of F3.54.12 human-murine chimeric antibody (antibody, human IgG1, kappa, V domains shown) VH: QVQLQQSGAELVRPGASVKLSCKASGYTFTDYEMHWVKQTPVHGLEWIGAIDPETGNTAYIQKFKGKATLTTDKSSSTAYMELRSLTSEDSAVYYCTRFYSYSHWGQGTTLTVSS VL: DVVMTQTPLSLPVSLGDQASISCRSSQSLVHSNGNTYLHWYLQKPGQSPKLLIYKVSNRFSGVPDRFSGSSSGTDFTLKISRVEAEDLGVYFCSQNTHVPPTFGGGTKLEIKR : 9.14

GET /value?item= F1.73.9 human-murine chimeric antibody (antibody, human IgG1, kappa, V domains shown) VH: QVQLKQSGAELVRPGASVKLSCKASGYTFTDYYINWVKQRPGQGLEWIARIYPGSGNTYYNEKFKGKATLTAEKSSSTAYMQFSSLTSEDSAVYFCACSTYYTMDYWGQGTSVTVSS VL: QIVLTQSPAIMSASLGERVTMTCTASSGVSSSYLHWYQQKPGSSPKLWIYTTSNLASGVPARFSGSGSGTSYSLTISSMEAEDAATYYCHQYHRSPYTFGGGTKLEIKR &field=pEC50 returns 9.18

For this binder ( F2.152.3 human-murine chimeric antibody (antibody, human IgG1, kappa, V domains shown) VH: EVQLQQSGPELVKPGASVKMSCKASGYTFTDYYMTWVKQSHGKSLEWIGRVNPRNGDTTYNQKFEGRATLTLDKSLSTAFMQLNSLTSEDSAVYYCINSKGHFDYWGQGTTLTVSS VL: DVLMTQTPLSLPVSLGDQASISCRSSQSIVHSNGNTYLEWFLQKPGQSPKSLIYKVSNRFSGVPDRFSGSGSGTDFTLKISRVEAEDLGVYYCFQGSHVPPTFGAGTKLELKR ), measured pEC50 is 9.14

binder F3.38.7 human-murine chimeric antibody (antibody, human IgG1, kappa, V domains shown) VH: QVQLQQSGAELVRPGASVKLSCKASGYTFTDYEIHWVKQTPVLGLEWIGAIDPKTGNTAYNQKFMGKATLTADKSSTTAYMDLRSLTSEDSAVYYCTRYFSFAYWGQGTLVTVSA VL: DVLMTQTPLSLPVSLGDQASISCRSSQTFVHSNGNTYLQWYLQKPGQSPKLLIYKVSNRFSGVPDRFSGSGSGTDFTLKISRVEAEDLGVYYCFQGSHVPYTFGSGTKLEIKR , pEC50 observed: 9.07

Form: binder = F2.92.1 human-murine chimeric antibody (antibody, human IgG1, kappa, V domains shown) VH: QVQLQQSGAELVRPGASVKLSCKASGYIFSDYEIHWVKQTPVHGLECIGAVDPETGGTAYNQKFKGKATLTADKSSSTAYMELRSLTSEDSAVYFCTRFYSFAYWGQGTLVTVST VL: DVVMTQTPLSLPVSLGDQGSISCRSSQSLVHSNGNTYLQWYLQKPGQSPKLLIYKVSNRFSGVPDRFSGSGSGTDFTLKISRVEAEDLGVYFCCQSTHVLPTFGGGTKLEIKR ; pEC50 = 9.04

get_value(item= F1.153.1 human-murine chimeric antibody (antibody, human IgG1, kappa, V domains shown) VH: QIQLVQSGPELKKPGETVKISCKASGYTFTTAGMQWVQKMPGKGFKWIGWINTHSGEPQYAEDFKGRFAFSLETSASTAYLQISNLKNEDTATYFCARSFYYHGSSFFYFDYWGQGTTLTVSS VL: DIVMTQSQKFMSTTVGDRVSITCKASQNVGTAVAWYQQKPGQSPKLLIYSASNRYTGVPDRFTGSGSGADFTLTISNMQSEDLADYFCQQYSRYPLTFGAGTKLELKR , readout=pEC50) returns 9.04

Input F4.13.7 human-murine chimeric antibody (antibody, human IgG1, kappa, V domains shown) VH: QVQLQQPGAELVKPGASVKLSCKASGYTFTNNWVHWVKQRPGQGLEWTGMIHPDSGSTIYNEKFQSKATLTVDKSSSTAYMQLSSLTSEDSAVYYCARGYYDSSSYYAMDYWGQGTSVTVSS VL: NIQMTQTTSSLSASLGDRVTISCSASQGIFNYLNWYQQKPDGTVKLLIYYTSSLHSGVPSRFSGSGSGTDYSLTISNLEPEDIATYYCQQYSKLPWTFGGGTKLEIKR . Output pEC50: 8.96
